Taken from the supplement of paper PMC11061612.

Tested on: NB14 (Neuroblastoma);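 also: after 72 h of two-drug dosing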
Assay: Bliss excess, mean over the matrix (fraction); higher = more synergy
The threshold is inclusive: Bliss excess of exactly 0.006 counts as Satisfied; values below receive Not satisfied.

# Molecule, Assay Target, Discrete Label
records = [
    ("CN(CCO)CC[C@H](CSc1ccccc1)Nc1ccc(S(=O)(=O)NC(=O)c2ccc(N3CCC([C@@H](O)c4ccccc4-c4ccc(Cl)cc4)CC3)cc2)cc1S(=O)(=O)C(F)(F)F [AZD4320] + C[C@@H](Nc1cc(F)cc(F)c1)c1cc(C(=O)N(C)C)cc2c(=O)cc(N3CCOCC3)oc12 [AZD8186] (first compound max 1 µM, 7x7, partner max 3 µM)", "NB14 (Neuroblastoma)", "Not satisfied"),
    ("COc1cccc(OCCCN)c1-c1cc(Nc2cnc(C#N)cn2)n[nH]1 [Prexasertib] + C[C@@H]1COCCN1C2=NC(=NC(=C2)C3(CC3)[S@](=N)(=O)C)C4=C5C=CNC5=NC=C4 [AZD6738] (first compound max 1 µM, 7x7, partner max 10 µM)", "NB14 (Neuroblastoma)", "Satisfied"),
    ("CS(=O)(=O)CCNCc1ccc(-c2ccc3ncnc(Nc4ccc(OCc5cccc(F)c5)c(Cl)c4)c3c2)o1 [Lapatinib] + Cn1cnc2c(F)c(Nc3ccc(Br)cc3Cl)c(C(=O)NOCCO)cc21 [Selumetinib] (first compound max 10 µM, 7x7, partner max 10 µM)", "NB14 (Neuroblastoma)", "Satisfied"),
    ("N#Cc1cnc(Nc2cc(NC[C@H]3CNCCO3)c(C(F)(F)F)cn2)cn1 [SRA737] + Nc1ccn([C@@H]2O[C@H](CO)[C@@H](O)C2(F)F)c(=O)n1 [Gemcitabine] (first compound max 10 µM, 7x7, partner max 0.3 µM)", "NB14 (Neuroblastoma)", "Satisfied"),
    ("Cc1cc2ncnn2cc1Nc1ncc2c(n1)n(C1CCOCC1)c(=O)n2C [AZD7648] + CCN(CCO)CCCOc1ccc2c(Nc3cc(CC(=O)Nc4cccc(F)c4)[nH]n3)ncnc2c1 [AZD2811] (first compound max 10 µM, 7x7, partner max 1 µM)", "NB14 (Neuroblastoma)", "Not satisfied"),
    ("Cc1cc2ncnn2cc1Nc1ncc2c(n1)n(C1CCOCC1)c(=O)n2C [AZD7648] + C[C@@H]1COCCN1C2=NC(=NC(=C2)C3(CC3)[S@](=N)(=O)C)C4=C5C=CNC5=NC=C4 [AZD6738] (first compound max 10 µM, 7x7, partner max 10 µM)", "NB14 (Neuroblastoma)", "Not satisfied"),
    ("C[C@@H]1COCCN1c1cc(C2([S@](C)(=N)=O)CC2)nc(-c2ccnc3[nH]ccc23)n1 [AZD6738] + O=C(c1cc(Cc2n[nH]c(=O)c3ccccc23)ccc1F)N1CCN(C(=O)C2CC2)CC1 [Olaparib] (first compound max 10 µM, 7x7, partner max 10 µM)", "NB14 (Neuroblastoma)", "Not satisfied"),
    ("Cc1c2c(nn1C)CSCc1cc(n(C)n1)CSc1cc(c3ccccc3c1)OCCCc1c(C(=O)O)n(C)c3c-2c(Cl)ccc13 [AZD5991] + CC1(C)CCC(CN2CCN(c3ccc(C(=O)NS(=O)(=O)c4ccc(NCC5CCOCC5)c([N+](=O)[O-])c4)c(Oc4cnc5[nH]ccc5c4)c3)CC2)=C(c2ccc(Cl)cc2)C1 [Venetoclax] (first compound max 1 µM, 7x7, partner max 1 µM)", "NB14 (Neuroblastoma)", "Satisfied"),
    ("CN(CCO)CC[C@H](CSc1ccccc1)Nc1ccc(S(=O)(=O)NC(=O)c2ccc(N3CCC([C@@H](O)c4ccccc4-c4ccc(Cl)cc4)CC3)cc2)cc1S(=O)(=O)C(F)(F)F [AZD4320] + C[C@@H]1COCCN1C2=NC(=NC(=C2)C3(CC3)[S@](=N)(=O)C)C4=C5C=CNC5=NC=C4 [AZD6738] (first compound max 1 µM, 7x7, partner max 10 µM)", "NB14 (Neuroblastoma)", "Not satisfied"),
    ("CC(=O)Nc1cccc(-n2c(=O)n(C3CC3)c(=O)c3c(Nc4ccc(I)cc4F)n(C)c(=O)c(C)c32)c1 [Trametinib] + Cc1nc(-c2cn3c(n2)-c2ccc(-c4cnn(C(C)(C)C(N)=O)c4)cc2OCC3)n(C(C)C)n1 [Taselisib] (first compound max 1 µM, 7x7, partner max 10 µM)", "NB14 (Neuroblastoma)", "Satisfied"),
]

I'd appreciate it if you could say whether CC(=O)c1c(C)c2cnc(Nc3ccc(N4CCNCC4)cn3)nc2n(C2CCCC2)c1=O [Palbociclib] + Cc1c2c(nn1C)CSCc1cc(n(C)n1)CSc1cc(c3ccccc3c1)OCCCc1c(C(=O)O)n(C)c3c-2c(Cl)ccc13 [AZD5991] (first compound max 10 µM, 7x7, partner max 1 µM) has Bliss excess at least equal to 0.006.
Not satisfied

Same for O=C(c1cc(Cc2n[nH]c(=O)c3ccccc23)ccc1F)N1CCN(C(=O)C2CC2)CC1 [Olaparib] + CN(CC[C@H](CSC1=CC=CC=C1)NC2=C(C=C(C=C2)S(=O)(=O)NC(=O)C3=CC=C(C=C3)N4CCC(CC4)[C@H](C5=CC=CC=C5C6=CC=C(C=C6)Cl)O)S(=O)(=O)C(F)(F)F)CCO [AZD4320] (first compound max 10 µM, 7x7, partner max 1 µM)
Not satisfied
